# TEST_NAME: Tissue distribution study
# Assay type: in vivo, male Wistar rats
# PARTICULARS: male, Wistar, rat, lymph node, ip, 10 mg/kg
ENDPOINT: MRT (h)
I only need the number, in h, no unit after it.

# SMILES_TEXT, ENDPOINT_UNIT, MRT
data = [
    ("CC(C)c1nc(CN(C)C(=O)N[C@H](C(=O)N[C@@H](Cc2ccccc2)C[C@H](O)[C@H](Cc2ccccc2)NC(=O)OCc2cncs2)C(C)C)cs1", "h", 16.3),
]

Attention now shifts to the item below.
Given the molecule O=C1Nc2ccc(Cl)cc2[C@@](C#CC2CC2)(C(F)(F)F)O1 , what is its reported MRT?
32.6

###

# TEST_NAME: Tissue distribution study
# Type: in vivo, male Wistar rats
# PARTICULARS: male, Wistar, rat, kidney, ip, 10 mg/kg
# reported half-life; entries follow
I only need the number, in h, no unit after it.

# MOLECULE, ENDPOINT_UNIT, half-life
data = [
    ("O=C1Nc2ccc(Cl)cc2[C@@](C#CC2CC2)(C(F)(F)F)O1 [EFV, efavirenz]", "h", 17.5),
]

Given the molecule CC(C)c1nc(CN(C)C(=O)N[C@H](C(=O)N[C@@H](Cc2ccccc2)C[C@H](O)[C@H](Cc2ccccc2)NC(=O)OCc2cncs2)C(C)C)cs1 [RTV, ritonavir] , what is its reported half-life?
14.7

###

# TEST_NAME: Tissue distribution study
# Format: in vivo, male Wistar rats
# PARTICULARS: male, Wistar, rat, kidney, ip, 10 mg/kg
# reported MRT; entries follow
I only need the number, in h, no unit after it.

# SMILES_TEXT, MRT (h)
data = [
    ("O=C1Nc2ccc(Cl)cc2[C@@](C#CC2CC2)(C(F)(F)F)O1", 27.3),
]

Attention now shifts to the item below.
Given the compound CC(C)c1nc(CN(C)C(=O)N[C@H](C(=O)N[C@@H](Cc2ccccc2)C[C@H](O)[C@H](Cc2ccccc2)NC(=O)OCc2cncs2)C(C)C)cs1 , what is its reported MRT?
21.9

###

# reported half-life; entries follow
# TEST_NAME: Tissue distribution study
# Type: in vivo, male Wistar rats
# PARTICULARS: male, Wistar, rat, liver, ip, 10 mg/kg
I only need the number, in h, no unit after it.

# SMILES_TEXT, half-life, h
measured = [
    ("CC(C)c1nc(CN(C)C(=O)N[C@H](C(=O)N[C@@H](Cc2ccccc2)C[C@H](O)[C@H](Cc2ccccc2)NC(=O)OCc2cncs2)C(C)C)cs1", 10.9),
]

Attention now shifts to the item below.
Given the compound O=C1Nc2ccc(Cl)cc2[C@@](C#CC2CC2)(C(F)(F)F)O1 , what is its reported half-life?
16.9

###

# reported half-life; entries follow
# TEST_NAME: Tissue distribution study
# Assay type: in vivo, male Wistar rats
# PARTICULARS: male, Wistar, rat, heart, ip, 10 mg/kg
I only need the number, in h, no unit after it.

# SMILES_TEXT, RESULT_NUMBER
measured = [
    ("O=C1Nc2ccc(Cl)cc2[C@@](C#CC2CC2)(C(F)(F)F)O1", 19.3),
]

Attention now shifts to the item below.
Given the compound CC(C)c1nc(CN(C)C(=O)N[C@H](C(=O)N[C@@H](Cc2ccccc2)C[C@H](O)[C@H](Cc2ccccc2)NC(=O)OCc2cncs2)C(C)C)cs1 , what is its reported half-life?
13.4

###

# TEST_NAME: Tissue distribution study
# Assay type: in vivo, male Wistar rats
# PARTICULARS: male, Wistar, rat, lymph node, ip, 10 mg/kg
ENDPOINT: Tmax (h)
I only need the number, in h, no unit after it.

# COMPOUND, ENDPOINT_UNIT, Tmax
measured = [
    ("CC(C)c1nc(CN(C)C(=O)N[C@H](C(=O)N[C@@H](Cc2ccccc2)C[C@H](O)[C@H](Cc2ccccc2)NC(=O)OCc2cncs2)C(C)C)cs1 [RTV, ritonavir]", "h", 4),
]

Attention now shifts to the item below.
Given the compound O=C1Nc2ccc(Cl)cc2[C@@](C#CC2CC2)(C(F)(F)F)O1 [EFV, efavirenz] , what is its reported Tmax?
6

###

# TEST_NAME: Tissue distribution study
# Assay type: in vivo, male Wistar rats
# PARTICULARS: male, Wistar, rat, kidney, ip, 10 mg/kg
# reported Cmax; entries follow
Lab note: write values as number then unit, every time.

# COMPOUND, ENDPOINT, RESULT
records = [
    ("O=C1Nc2ccc(Cl)cc2[C@@](C#CC2CC2)(C(F)(F)F)O1 [EFV, efavirenz]", "Cmax", "5340 ng/mL"),
]

Attention now shifts to the item below.
Given the compound CC(C)c1nc(CN(C)C(=O)N[C@H](C(=O)N[C@@H](Cc2ccccc2)C[C@H](O)[C@H](Cc2ccccc2)NC(=O)OCc2cncs2)C(C)C)cs1 [RTV, ritonavir] , what is its reported Cmax?
2490 ng/mL

###

# TEST_NAME: Tissue distribution study
# Type: in vivo, male Wistar rats
# PARTICULARS: male, Wistar, rat, brain, ip, 10 mg/kg
ENDPOINT: half-life (h)
I only need the number, in h, no unit after it.

# SMILES_TEXT, ENDPOINT_UNIT, half-life
measured = [
    ("O=C1Nc2ccc(Cl)cc2[C@@](C#CC2CC2)(C(F)(F)F)O1", "h", 13.5),
]

Attention now shifts to the item below.
Given the compound CC(C)c1nc(CN(C)C(=O)N[C@H](C(=O)N[C@@H](Cc2ccccc2)C[C@H](O)[C@H](Cc2ccccc2)NC(=O)OCc2cncs2)C(C)C)cs1 , what is its reported half-life?
6.67

###

# TEST_NAME: Tissue distribution study
# Format: in vivo, male Wistar rats
# PARTICULARS: male, Wistar, rat, spleen, ip, 10 mg/kg
# reported MRT; entries follow

# COMPOUND, MRT
rows = [
    ("CC(C)c1nc(CN(C)C(=O)N[C@H](C(=O)N[C@@H](Cc2ccccc2)C[C@H](O)[C@H](Cc2ccccc2)NC(=O)OCc2cncs2)C(C)C)cs1 [RTV, ritonavir]", "18 h"),
]

Attention now shifts to the item below.
Given the compound O=C1Nc2ccc(Cl)cc2[C@@](C#CC2CC2)(C(F)(F)F)O1 [EFV, efavirenz] , what is its reported MRT?
32.1 h

###

# reported MRT; entries follow
# TEST_NAME: Tissue distribution study
# Format: in vivo, male Wistar rats
# PARTICULARS: male, Wistar, rat, liver, ip, 10 mg/kg
I only need the number, in h, no unit after it.

# SMILES_TEXT, MRT / h
records = [
    ("O=C1Nc2ccc(Cl)cc2[C@@](C#CC2CC2)(C(F)(F)F)O1", 30.7),
]

Attention now shifts to the item below.
Given the molecule CC(C)c1nc(CN(C)C(=O)N[C@H](C(=O)N[C@@H](Cc2ccccc2)C[C@H](O)[C@H](Cc2ccccc2)NC(=O)OCc2cncs2)C(C)C)cs1 , what is its reported MRT?
16.6

###

# reported MRT; entries follow
# TEST_NAME: Tissue distribution study
# Assay type: in vivo, male Wistar rats
# PARTICULARS: male, Wistar, rat, brain, ip, 10 mg/kg
I only need the number, in h, no unit after it.

# SMILES_TEXT, ENDPOINT, ENDPOINT_UNIT, RESULT_NUMBER
records = [
    ("O=C1Nc2ccc(Cl)cc2[C@@](C#CC2CC2)(C(F)(F)F)O1", "MRT", "h", 26.2),
]

Attention now shifts to the item below.
Given the molecule CC(C)c1nc(CN(C)C(=O)N[C@H](C(=O)N[C@@H](Cc2ccccc2)C[C@H](O)[C@H](Cc2ccccc2)NC(=O)OCc2cncs2)C(C)C)cs1 , what is its reported MRT?
10.5

###

# TEST_NAME: Tissue distribution study
# Format: in vivo, male Wistar rats
# PARTICULARS: male, Wistar, rat, lymph node, ip, 10 mg/kg
ENDPOINT: half-life (h)
I only need the number, in h, no unit after it.

# SMILES_TEXT, half-life (h)
records = [
    ("CC(C)c1nc(CN(C)C(=O)N[C@H](C(=O)N[C@@H](Cc2ccccc2)C[C@H](O)[C@H](Cc2ccccc2)NC(=O)OCc2cncs2)C(C)C)cs1", 12.9),
]

Attention now shifts to the item below.
Given the compound O=C1Nc2ccc(Cl)cc2[C@@](C#CC2CC2)(C(F)(F)F)O1 , what is its reported half-life?
21

###

# TEST_NAME: Tissue distribution study
# Assay type: in vivo, male Wistar rats
# PARTICULARS: male, Wistar, rat, spleen, ip, 10 mg/kg
# reported Cmax; entries follow
I only need the number, in ng/mL, no unit after it.

# COMPOUND, ENDPOINT_UNIT, Cmax
measured = [
    ("CC(C)c1nc(CN(C)C(=O)N[C@H](C(=O)N[C@@H](Cc2ccccc2)C[C@H](O)[C@H](Cc2ccccc2)NC(=O)OCc2cncs2)C(C)C)cs1 [RTV, ritonavir]", "ng/mL", 2130),
]

Attention now shifts to the item below.
Given the compound O=C1Nc2ccc(Cl)cc2[C@@](C#CC2CC2)(C(F)(F)F)O1 [EFV, efavirenz] , what is its reported Cmax?
4580
